Measure Name: flash point (°C)
Write the number in °C without appending the unit.

[ask] What measured flash point goes with CCCCC(CC)CNCC(CC)CCCC (stereo not given) ?
[reply] 132.00

[ask] Now the molecule C=CC(=O)OCCCCCC(C)C [6-methylheptyl prop-2-enoate]
[reply] 91.00

[ask] Now the molecule CC(=O)c1ccccc1
[reply] 82.00

[ask] Now the molecule CCC(OCCCOC)OC(C)=O (stereo not given) [1-(3-methoxypropoxy)propyl acetate]
[reply] 86.00

[ask] Now the molecule CCCCCCCCOC(=O)CCCCC(=O)OCCCCCCCC [dioctyl hexanedioate]
[reply] 196.00

[ask] Now the molecule c1ccc2c(c1)ccc1ncccc12 [benzo[f]quinoline]
[reply] 166.00

[ask] Now the molecule Cc1cc(C)cc(N)c1
[reply] 93.00

[ask] Now the molecule CCCS
[reply] -15.00

[ask] Now the molecule Clc1cccc(C(Cl)(Cl)Cl)n1
[reply] 100.00

[ask] Now the molecule CCCCC(CC)CN (stereo not given)
[reply] 60.00

Values were extracted from a flash point compilation (Sun et al. 2020).
